- target-entity: T1, Rae1(31-368)-Nup98(157-213) heterodimer (human, UniProt P78406 31-368; P52948 157-213)
- T1 construct: also called Rae1-Nup98; Rae1-Nup98 complex
- T1 sequence (P78406 31-368, chain 1 of 2): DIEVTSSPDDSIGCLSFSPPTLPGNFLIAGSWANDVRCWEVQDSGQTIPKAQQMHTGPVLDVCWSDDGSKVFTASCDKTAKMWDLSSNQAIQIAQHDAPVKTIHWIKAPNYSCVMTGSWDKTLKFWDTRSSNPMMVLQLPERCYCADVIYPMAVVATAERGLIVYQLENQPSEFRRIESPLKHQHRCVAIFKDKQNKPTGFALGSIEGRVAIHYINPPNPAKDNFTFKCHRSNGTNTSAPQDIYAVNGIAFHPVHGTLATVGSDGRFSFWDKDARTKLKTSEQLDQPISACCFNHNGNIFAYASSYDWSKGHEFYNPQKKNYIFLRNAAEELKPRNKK
- T1 sequence (P52948 157-213, chain 2 of 2): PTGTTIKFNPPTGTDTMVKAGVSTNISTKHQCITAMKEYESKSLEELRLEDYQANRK
- protocol: ITC
- condition-context: both partners purified
Collected Ka values appear next to each entry.
Use M⁻¹ as the unit, but write only the number.

Using the record for YSELDDEEPMELD [SARS-CoV ORF6-YP] , report its Ka.
8.89e+06

These data points were gathered from paper PMC9376891.
